SYSTEM: T1, human APJ receptor (hAPJ) (human, UniProt P35414 1-380)
T1 sequence (looked up): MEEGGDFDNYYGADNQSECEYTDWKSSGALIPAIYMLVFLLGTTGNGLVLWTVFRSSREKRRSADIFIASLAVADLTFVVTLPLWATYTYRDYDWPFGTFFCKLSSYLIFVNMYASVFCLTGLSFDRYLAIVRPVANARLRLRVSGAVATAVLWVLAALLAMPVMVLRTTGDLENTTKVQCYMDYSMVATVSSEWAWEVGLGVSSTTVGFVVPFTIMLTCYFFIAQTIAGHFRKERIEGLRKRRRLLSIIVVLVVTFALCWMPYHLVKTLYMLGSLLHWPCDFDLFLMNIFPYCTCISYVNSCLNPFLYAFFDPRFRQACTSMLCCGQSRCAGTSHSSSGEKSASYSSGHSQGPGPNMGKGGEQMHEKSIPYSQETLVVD
ASSAY COMMENT: cell-based or functional assay
Bridges are numbered along the chain shown (N, C = ends). [ ]: non-standard residue; d: D form. pGlu = O=C1CC[C@@H](C(=O)O)N1; Nle = CCCC[C@H](N)C(=O)O
Reported hAPJ Ca2+ Flux EC50 values for a set of binders
A number alone suffices; assume nM.

Reference set, count: 3
| BINDER | RESULT VALUE |
| --- | --- |
| [pGlu]RPRLCHKGP[Nle]CF-OH (bridge 6-12; not fully specified (bridges); printed as pE-R-P-R-L-C-H-K-G-P-Nle-C-F-OH) | 1.1 |
| [pGlu]RPRLKFKGP[Nle][dF] (lactam 6-C; SMILES CCCC[C@@H]1NC(=O)[C@@H]2CCCN2C(=O)CNC(=O)[C@H](CCCCN)NC(=O)[C@H](Cc2ccccc2)NC(=O)[C@@H](NC(=O)[C@H](CC(C)C)NC(=O)[C@H](CCCNC(=N)N)NC(=O)[C@@H]2CCCN2C(=O)[C@H](CCCNC(=N)N)NC(=O)[C@@H]2CCC(=O)N2)CCCCNC(=O)[C@@H](Cc2ccccc2)NC1=O) [Example 6: pE-R-P-R-L-K-F-K-G-P-Nle-f] | 22 |
| [pGlu]RPRLCHKGP[Nle]CF-OH (linker 6-12 via ‑S‑CH2‑C(O)CH2‑S‑) | 6.3 |

Okay, now this binder:
Recorded result, [pGlu]RPRLCHEGP[Nle]CF-OH (disulfide 6-12; SMILES CCCC[C@@H]1NC(=O)[C@@H]2CCCN2C(=O)CNC(=O)[C@H](CCC(=O)O)NC(=O)[C@H](Cc2c[nH]cn2)NC(=O)[C@@H](NC(=O)[C@H](CC(C)C)NC(=O)[C@H](CCCNC(=N)N)NC(=O)[C@@H]2CCCN2C(=O)[C@H](CCCNC(=N)N)NC(=O)[C@@H]2CCC(=O)N2)CSSC[C@@H](C(=O)N[C@@H](Cc2ccccc2)C(=O)O)NC1=O) [Example 38: pE-R-P-R-L-C-H-E-G-P-Nle-C-F-OH] , hAPJ Ca2+ Flux EC50: 182

Reference source: patent US8673848
